Molecular target: PEX5-PEX14 complex (biotin-coupled PEX5 peptide, His-tagged T. brucei PEX14) (Trypanosoma brucei brucei, UniProt Q38CL4)
Sequence (Q38CL4 1-366, one chain of several): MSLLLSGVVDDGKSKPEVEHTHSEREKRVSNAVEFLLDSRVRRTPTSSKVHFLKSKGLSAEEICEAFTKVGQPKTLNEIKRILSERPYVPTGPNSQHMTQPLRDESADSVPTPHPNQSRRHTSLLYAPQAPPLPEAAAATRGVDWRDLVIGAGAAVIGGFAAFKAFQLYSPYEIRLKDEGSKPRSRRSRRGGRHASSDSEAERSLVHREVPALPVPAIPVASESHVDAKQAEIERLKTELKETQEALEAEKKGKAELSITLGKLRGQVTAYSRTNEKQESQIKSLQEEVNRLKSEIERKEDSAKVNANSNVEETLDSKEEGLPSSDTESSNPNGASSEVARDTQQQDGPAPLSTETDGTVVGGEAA
Assay: biochemical
Assay type: binding
Conditions: AlphaScreen EC50 [μM] (±SD), 30 nM PEX5, 30 nM PEX14; quadruplicate
TEST_READOUT: EC50 (µM)
Express it in µM; write the number only.

**Query** What value of EC50 has been recorded for this entry: O=C(NCc1ccccc1)c1nn(CCO)c2c1CN(Cc1cc3ccccc3c3ccccc13)CC2 [Compound 30]
**Result** 29.8

* * *

Tested on: T. brucei brucei bloodstream form parasites (strain Lister 427)
Assay: Antitrypanosomal activity assay (resazurin; FIG. 2)
Assay type: cell-based
Conditions: Trypanosoma brucei; 66 h + 6 h resazurin
TEST_READOUT: IC50 (µM)
Respond numerically; units are µM and should not be typed.

See these solved cases before continuing.
1) Cn1nc(C(=O)NCc2ccccc2)c2c1CCN(Cc1cccc(-c3ccccc3)c1)C2 [Compound 10] : 7.4
2) COc1ccc2[nH]c(CN3CCc4c(c(C(=O)NCc5cccc6ccccc56)nn4CCO)C3)cc2c1 [Compound 110] : 2.6

**Query** Entry under review: Cn1nc(C(=O)NCc2ccccc2)c2c1CCN(Cc1c[nH]c3cc(OCc4ccccc4)ccc13)C2 [Compound 11] . Reported IC50?
**Result** 1.1

**Query** Record request: IC50 value, item COc1ccc(CN2CCc3c(c(C(=O)NCc4cccc(C)c4)nn3CCO)C2)c2ccccc12 [Compound 62]
**Result** 4.5
